B1: mRNA-splicing (parent)
chain: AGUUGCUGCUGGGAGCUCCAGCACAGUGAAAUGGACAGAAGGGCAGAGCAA

Variants of: B1
Assay comment: exon inclusion enrichment index; higher = more inclusion; WT1 exon 5 minigene, HEK293
# maps each entry to its exon inclusion enrichment index
Give your answer as a number; write no unit.

Here's what some known entries look like.
# Variant label, exon inclusion enrichment index
data = [
    ("C6A U7C G8U U10C", 2.98),
    ("U3C U4C G5A C6G U7G C9A", 0.127),
    ("U3A U4A", 0.0787),
]

Given G5C C6A U7C G8A U10A C16A , respond with its exon inclusion enrichment index. 0.0973

Given C6A U7A C9A U10A G28C A29U , respond with its exon inclusion enrichment index. 0.358

Given G5A U7C G8A U10C G11U G12C , respond with its exon inclusion enrichment index. 0.738

Given G5C C6G U7C U10C G21A C22U , respond with its exon inclusion enrichment index. 1.87
